Test Description: qHTS assay for small molecule disruptors of the mitochondrial membrane potential (AID 720635)
Stated Conditions: HepG2 mitochondrial membrane potential, Mito-MPS dye ratio; series mostly up to 83.2 µM
Results filed as inconclusive are left out. The source made the active and inactive calls. The call rests on the fitted dose curve; in most records, active means well fitted inhibition curve with a large enough effect in the signal ratio in the repeat runs; inconclusive means weak or mixed curves, or effect the other way; inactive means flat fitted curve, though single readings scatter; the % refers to the signal ratio.
# output must be one of active, inactive

{"Mol Smiles": "Oc1ccc2c(c1)-c1ccccc1C2", "Class Label": "active"}
{"Mol Smiles": "O=S1(=O)CC(Cl)(Cl)C(Cl)(Cl)C1", "Class Label": "active"}
{"Mol Smiles": "CC1(C)CCC(C)(C)c2cc(C(=O)Nc3ccc(C(=O)O)cc3)ccc21", "Class Label": "active"}
{"Mol Smiles": "O=C1Cc2cc(CCN3CCN(c4nsc5ccccc45)CC3)c(Cl)cc2N1", "Class Label": "inactive"}
{"Mol Smiles": "CCCCCCCCCCCCCCCCCC[N+](C)(C)Cc1ccccc1", "Class Label": "active"}
{"Mol Smiles": "CCCCCCCC[N+](CCCCCCCC)(CCCCCCCC)CCCCCCCC", "Class Label": "active"}

Now turn to the next compound.
Q) Please let me know the test result on file for CC(=O)N1CCN(c2ccc(OC[C@H]3CO[C@](Cn4ccnc4)(c4ccc(Cl)cc4Cl)O3)cc2)CC1 .
A) active

---

Test Description: qHTS assay to identify small molecule agonists of the AP-1 signaling pathway - cell viability counter screen (AID 1159525); further: nearly all actives have a fitted effect of over 55% in size
Stated Conditions: ME-180 (cervical carcinoma) AP-1-bla cells viability, ATP luminescence, 5 h; series mostly up to 76.8 µM
Records with an inconclusive call do not appear. Active and inactive are the calls of the source. Calls follow the shape of the full dose curve.
# output must be one of active, inactive

{"Mol Smiles": "Oc1ccc2cc(SSc3ccc4cc(O)ccc4c3)ccc2c1", "Class Label": "inactive"}
{"Mol Smiles": "O=[N+]([O-])c1ccccc1Nc1ccccc1", "Class Label": "inactive"}
{"Mol Smiles": "Cc1[nH]nc2c1N=C(c1ccccc1Cl)c1cc([N+](=O)[O-])ccc1N2", "Class Label": "active"}
{"Mol Smiles": "CCOC(=O)c1nc(C(Cl)(Cl)Cl)n(-c2ccc(Cl)cc2Cl)n1", "Class Label": "inactive"}

Now turn to the next compound.
Q) Please let me know the test result on file for C[C@]12CCC(=O)C=C1CC[C@@H]1[C@@H]2[C@@H](O)C[C@@]2(C)[C@H]1CC[C@]2(O)C(=O)COC(=O)CCC(=O)O .
A) inactive

---

Test Description: qHTS assay to identify small molecule antagonists of the androgen receptor (AR) signaling pathway using the MDA cell line - cell viability counter screen (AID 743041; further: nearly all actives have a fitted effect of over 45% in size)
Stated Conditions: MDA-kb2 viability, CellTiter-Fluor, 16 h, cells co-treated with R1881 androgen agonist; series mostly up to 70.3 µM
Results filed as inconclusive are left out. Active and inactive are the calls of the source. The call rests on the fitted dose curve; in most records, active means well fitted cell-killing curve with a large enough effect in the repeat runs; inconclusive means weak or mixed curves, or effect the other way; inactive means flat fitted curve, though single readings scatter.
# output must be one of TRUE for active, FALSE for inactive

Some entries whose results are on file:
{"Compound": "O=C1CCCc2c1cc1ccc3cccc4ccc2c1c34", "Class Label": "FALSE"}
{"Compound": "CCc1cc(SCc2sc(-c3ccc(C(F)(F)F)cc3)nc2CN2CCN(c3ccc(OC)cc3)CC2)ccc1OCC(=O)O", "Class Label": "FALSE"}
{"Compound": "O=C(c1ccc(O)cc1O)c1ccc(O)cc1O", "Class Label": "FALSE"}
{"Compound": "CC(C)=CCOc1ccc(/C=C/C(=O)c2ccc(OCC=C(C)C)cc2OCC(=O)O)cc1", "Class Label": "FALSE"}
{"Compound": "CCCC1O[C@@H]2C[C@H]3[C@@H]4CCC5=CC(=O)C=C[C@]5(C)[C@H]4[C@@H](O)C[C@]3(C)[C@]2(C(=O)CO)O1 (some centres not stated)", "Class Label": "FALSE"}

Q) Please let me know the test result on file for O=[N+]([O-])c1ccccc1Nc1ccccc1 .
A) FALSE

Q) Please let me know the test result on file for N=C1N=C(N)c2ccccc21 .
A) FALSE

---

Subject Of Test: Estrogen receptor (Homo sapiens) (UniProt P03372)
Sequence (P03372 whole entry, looked up): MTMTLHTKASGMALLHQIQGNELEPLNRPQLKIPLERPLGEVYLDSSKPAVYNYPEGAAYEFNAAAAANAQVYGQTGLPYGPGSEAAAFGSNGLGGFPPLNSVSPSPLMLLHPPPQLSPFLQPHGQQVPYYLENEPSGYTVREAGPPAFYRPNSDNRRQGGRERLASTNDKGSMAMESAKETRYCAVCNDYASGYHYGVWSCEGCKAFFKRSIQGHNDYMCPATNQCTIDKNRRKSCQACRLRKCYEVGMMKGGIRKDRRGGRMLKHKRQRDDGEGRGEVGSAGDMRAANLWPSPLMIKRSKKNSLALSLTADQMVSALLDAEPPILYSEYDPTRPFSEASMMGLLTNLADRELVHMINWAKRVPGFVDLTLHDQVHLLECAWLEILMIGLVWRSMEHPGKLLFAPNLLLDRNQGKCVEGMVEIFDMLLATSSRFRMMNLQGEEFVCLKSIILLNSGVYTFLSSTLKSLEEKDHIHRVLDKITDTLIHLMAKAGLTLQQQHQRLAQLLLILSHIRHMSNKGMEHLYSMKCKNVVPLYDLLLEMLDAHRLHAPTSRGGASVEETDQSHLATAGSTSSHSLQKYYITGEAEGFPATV
Test Description: qHTS assay to identify small molecule antagonists of the estrogen receptor alpha (ER-alpha) signaling pathway using the BG1 cell line in the presence of 0.1 nM 17-beta-estradiol (AID 1259244); further: nearly all actives have a fitted effect of over 50% in size
Stated Conditions: VM7Luc4E2 (BG1) ERE-luciferase, antagonist mode, 0.1 nM E2, 22 h; series mostly up to 92.4 µM
Results filed as inconclusive are left out. Activity calls are given as the source filed them. Calls follow the shape of the dose curve; as a rule, active = well fitted inhibition curve with a large enough effect in the repeat runs; inconclusive = weak or mixed curves; inactive = no such curve, though single readings can be large or run the other way.
# output must be one of Y = active, N = inactive

Some entries whose results are on file:
{"Molecule": "Nc1nc2ccccc2n1Cc1ccc(F)cc1", "Class Label": "Y"}
{"Molecule": "NNc1nc(-c2ccccc2)cs1", "Class Label": "N"}
{"Molecule": "CCC(N)(CO)CO", "Class Label": "N"}
{"Molecule": "Cc1cc(CCN2CCN(c3nsc4ccccc34)CC2)cc2c1NC(=O)CC2(C)C", "Class Label": "Y"}
{"Molecule": "CCCCCCCCNC(C)C(O)c1ccc(SC(C)C)cc1 (stereo unspecified)", "Class Label": "Y"}

Q) Please let me know the test result on file for CN(C)[C@@H]1C(=O)C(C(N)=O)=C(O)[C@@]2(O)C(=O)C3=C(O)c4c(O)cccc4C[C@H]3C[C@@H]12 .
A) N

---

Test Description: Human pregnane X receptor (PXR) small molecule agonists, qHTS cell viability counter screen (AID 1346977); further: nearly all actives have a fitted effect of over 50% in size; further: potency means the concentration at half of the fitted maximal effect
Stated Conditions: PXR-Luc HepG2 viability, CellTiter-Fluor, 24 h; series mostly up to 92.4 µM
From the text: U.S. Tox21 Program National Center for Advancing Translational Sciences [NCATS] NIH Chemical Genomics Center [NCGC] U.S. Environmental Protection Agency [EPA] National Institutes of Environmental Health Sciences [NIEHS] National Toxicology Program [NTP] U.S. Food and Drug Administration [FDA] […]
Results filed as inconclusive are left out. Active and inactive are the calls of the source. Calls follow the shape of the dose curve; as a rule, active = well fitted cell-killing curve with a large enough effect in the repeat runs; inconclusive = weak or mixed curves, or effect the other way; inactive = flat fitted curve, though single readings scatter.
Quantity Kind: Potency

A selection of reference data follows.
{"Compound": "O=C(Nc1cccc([N+](=O)[O-])c1)c1cc2ccccc2cc1O", "Potency": "3.86 µM (active)"}
{"Compound": "CN(C)[C@@H]1C(=O)C(C(N)=O)=C(O)[C@@]2(O)C(=O)C3=C(O)c4c(O)cccc4C[C@H]3C[C@@H]12", "Potency": "inactive"}
{"Compound": "COc1cc(-c2ccc(N=C=O)c(OC)c2)ccc1N=C=O", "Potency": "inactive"}
{"Compound": "Nc1c(Cl)cc(Cl)cc1Cl", "Potency": "inactive"}
{"Compound": "On1ccccc1=S", "Potency": "0.762 µM (active)"}
{"Compound": "CS(=O)(=O)CCNCc1ccc(-c2ccc3ncnc(Nc4ccc(OCc5cccc(F)c5)c(Cl)c4)c3c2)o1", "Potency": "26.6 µM (active)"}
{"Compound": "OCCN1CCN(CC/C=C2/c3ccccc3Sc3ccc(C(F)(F)F)cc32)CC1", "Potency": "29.8 µM (active)"}
{"Compound": "CCC(Cl)C(Cl)C(Cl)CC(Cl)C(Cl)C(C)Cl (configuration not stated)", "Potency": "inactive"}

Potency for Cc1cccc(S(=O)(=O)O)c1C is inactive

Potency for CSc1cnc(C)cn1 is inactive

Potency for CN(C)[C@@H]1C(=O)C(C(N)=O)=C(O)[C@@]2(O)C(=O)C3=C(O)c4c(O)ccc(Cl)c4[C@@H](O)[C@H]3C[C@@H]12 is inactive

---

Test Description: qHTS assay to identify small molecule antagonists of the estrogen receptor alpha (ER-alpha) signaling pathway - cell viability counter screen (AID 743074);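 further: HEK293 cells carrying ER-alpha-UAS-bla reporter stimulated with 17beta-estradiol; nearly all actives have a fitted effect of over 45% in size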; further: potency means the concentration at half of the fitted maximal effect
Stated Conditions: ERalpha-bla HEK293 viability, CellTiter-Glo luminescence, 18 h; series mostly up to 69.4 µM
Inconclusive results are not listed. Active and inactive are the calls of the source. The call rests on the fitted dose curve.
Quantity Kind: Potency

A selection of reference data follows.
{"Compound": "CSc1cnc(C)cn1", "Result": "inactive"}
{"Compound": "C[C@@H](NCCCc1cccc(C(F)(F)F)c1)c1cccc2ccccc12", "Result": "23.9 µM (active)"}
{"Compound": "O=C(Oc1cccc2cccnc12)c1ccccc1", "Result": "inactive"}
{"Compound": "CCN(C(=O)c1cc(C)cc(OC[C@H](C)Nc2ccncc2)c1)C(C)C", "Result": "inactive"}
{"Compound": "Cc1cc2c(cc1C(F)(F)F)N(C(=O)Nc1ccc(Oc3cccnc3C)nc1)CC2", "Result": "inactive"}

Potency for O=[N+]([O-])c1cc([N+](=O)[O-])c2ccc(S(=O)(=O)O)cc2c1O is inactive

Potency for Clc1ccc2nsnc2c1NC1=NCCN1 is inactive

Potency for OC1(c2ccc(Cl)c(C(F)(F)F)c2)CCN(CCCC(c2ccc(F)cc2)c2ccc(F)cc2)CC1 is 26.8 µM (active)

Potency for CCC(Cl)C(Cl)C(Cl)CC(Cl)C(Cl)C(C)Cl (stereo not drawn) is inactive

Potency for CCCCC(CC)CN=C(N)NC(N)=NCCCCCCN=C(N)NC(N)=NCC(CC)CCCC (stereo not drawn) is 10.7 µM (active)

Potency for CCCCCCCCCCCCCCCC(=O)OC[C@H](O)[C@H]1OC(=O)C(O)=C1O is inactive

Potency for OCCN(CCO)c1nc(N2CCCCC2)c2nc(N(CCO)CCO)nc(N3CCCCC3)c2n1 is inactive

meta.source: PubChem BioAssay (Tox21)
